// data source = PubChem BioAssay (NCATS)

Test Details: Cell Viability - LYMP1-002 - Assay at 24 hr (AID 993)
Particulars: LYMP1-002 lymphoblastoid cells viability; series mostly up to 92.2 µM
Active and inactive are the calls of the source. Calls follow the shape of the dose curve; as a rule, active = well fitted cell-killing curve with a large enough effect; inconclusive = small, poorly fitted or top-dose-only effect; inactive = flat fitted curve, though single readings scatter.
Please answer using one outcome listed in active, inactive

Q: Which outcome was entered for the molecule Cc1cc(Nc2ccc(O)cc2)ccc1N in this test?
Ans: inactive

Q: Which outcome was entered for the molecule c1ccc2c(c1)-c1cccc3c1c-2cc1ccccc13 in this test?
Ans: inactive

Q: Which outcome was entered for the molecule Cc1cccc(O)c1C in this test?
Ans: inactive

Q: Which outcome was entered for the molecule CC(=O)Nc1ccc(C(=O)CCl)cc1 in this test?
Ans: active

Q: Which outcome was entered for the molecule O=[N+]([O-])c1cc([N+](=O)[O-])c2ccc(S(=O)(=O)O)cc2c1O in this test?
Ans: inactive

Q: Which outcome was entered for the molecule c1cc(OCC2CO2)cc(OCC2CO2)c1 (stereo not drawn) in this test?
Ans: inactive

Q: Which outcome was entered for the molecule Oc1ccc2cc(SSc3ccc4cc(O)ccc4c3)ccc2c1 in this test?
Ans: active

Q: Which outcome was entered for the molecule CNc1ccc(O)cc1 in this test?
Ans: active

Q: Which outcome was entered for the molecule CO[C@H]1/C=C/O[C@@]2(C)Oc3c(C)c(O)c4c(O)c(c5c(c4c3C2=O)NC2(CCN(CC(C)C)CC2)N=5)=NC(=O)/C(C)=C\C=C\[C@H](C)[C@H](O)[C@@H](C)[C@@H](O)[C@@H](C)[C@H](OC(C)=O)[C@@H]1C in this test?
Ans: inactive

Q: Which outcome was entered for the molecule O=Cc1ccc(Cl)c(Cl)c1 in this test?
Ans: inactive

Q: Which outcome was entered for the molecule C=C(C)c1ccccc1 in this test?
Ans: inactive

Q: Which outcome was entered for the molecule c1ccc2c(c1)ccc1cc3c(ccc4ccccc43)cc12 in this test?
Ans: inactive

Q: Which outcome was entered for the molecule Nc1ccc2cc3ccccc3cc2c1 in this test?
Ans: inactive
